# System: Saccharomyces cerevisiae
# Assay details: protein stability index of tFT-peptide fusion (C-terminal peptide) (PSI (0-1 scale)); higher = more stable (slower turnover)
# Condition context: genetic background: das1 deletion; temperature: 30 C
Test readout: protein stability index
// response body must contain only the number

LESADKKKDVKA [DUS1 C-terminal 12 aa] ... 0.692
DVEIDEDEEYFY [SPO12 C-terminal 12 aa] ... 0.707
TEIDESFEMTDF [KEX1 C-terminal 12 aa] ... 0.723
RWFKKKKETGGS [BUD2 C-terminal 12 aa] ... 0.698
MVYKPEDSLLKI [MTR2 C-terminal 12 aa] ... 0.684
AVHSFNTPAVQS [COX1 C-terminal 12 aa] ... 0.686

Attention now turns to another entry.
Lookup: // lookup protein stability index for VSDSEQSDTKGI [UAF30 C-terminal 12 aa]
Found: 0.673

---

# System: Saccharomyces cerevisiae
# Assay details: protein stability index of tFT-peptide fusion (C-terminal peptide) (PSI (0-1 scale)); higher = more stable (slower turnover)
# Condition context: genetic background: das1 deletion; temperature: 30 C
Listed here: items and their measured protein stability index.
// response body must contain only the number

These solved cases illustrate the format of a correct answer.
TSPKESFFKEVI [LPX2 C-terminal 12 aa] ... 0.715
GPSIIMTLYLTL [ARE1 C-terminal 12 aa] ... 0.496
QTILFAAFLPPA [GPI18 C-terminal 12 aa] ... 0.696

Lookup: // lookup protein stability index for RLLSLWEVFQMA [RPC82 C-terminal 12 aa]
Found: 0.646

Lookup: // lookup protein stability index for RMVDKVEGSFSR [YDR109C C-terminal 12 aa]
Found: 0.722

Lookup: // lookup protein stability index for VNRQLEMDLPIE [YKL066W C-terminal 12 aa]
Found: 0.707

---

# Tested on: Saccharomyces cerevisiae
# Assay details: protein stability index of tFT-peptide fusion (C-terminal peptide) (PSI (0-1 scale)); higher = more stable (slower turnover)
# Condition context: genetic background: wild type; temperature: 30 C
Test readout: protein stability index
// response body must contain only the number

These solved cases illustrate the format of a correct answer.
LRLCSLSLPSLP ... 0.704
LNLTAPPPPHLV ... 0.672
ESTKKQSTAPKN ... 0.714
PSLPRLPLCPLP ... 0.704
RRREESGEGSEQ ... 0.635
KRLTSKVKTITG ... 0.694
PRTLRHSGRLAE ... 0.705
VRCGGRGRAGKG ... 0.634

Lookup: // lookup protein stability index for VSGGRQVGWGGW
Found: 0.686

Lookup: // lookup protein stability index for EEGGQGITIEES
Found: 0.686

---

# Test system: Saccharomyces cerevisiae
# Assay details: protein stability index of tFT-peptide fusion (C-terminal peptide) (PSI (0-1 scale)); higher = more stable (slower turnover)
# Condition context: genetic background: wild type; temperature: 30 C
Listed here: items and their measured protein stability index.
// response body must contain only the number

These solved cases illustrate the format of a correct answer.
TKNTEGVKNSLF ... 0.64
LHGFYSKKAINR ... 0.701

Lookup: // lookup protein stability index for QCSVRLKEIQFS
Found: 0.346

Lookup: // lookup protein stability index for CFFVRLSSFYCS
Found: 0.63

Lookup: // lookup protein stability index for FSPVSSFTLTLS
Found: 0.701

Lookup: // lookup protein stability index for SSAPPTLHTRPS
Found: 0.539

Lookup: // lookup protein stability index for PLWLPPTPMQII
Found: 0.62

Lookup: // lookup protein stability index for TGNARCYFGKSV
Found: 0.692

Lookup: // lookup protein stability index for GEGRGDKGHGWT
Found: 0.706

Lookup: // lookup protein stability index for IRRRKRKRNQKP
Found: 0.708

Lookup: // lookup protein stability index for VLLLLPASTPSL
Found: 0.696

Lookup: // lookup protein stability index for TVIVCCHLEVVY
Found: 0.0135

Lookup: // lookup protein stability index for TGRGGAPRAKEE
Found: 0.699

Lookup: // lookup protein stability index for KKKKKQKKKKRK
Found: 0.682

Lookup: // lookup protein stability index for DFLCHFCVIDEC
Found: 0.653

Lookup: // lookup protein stability index for VGRRDNHPTEKT
Found: 0.73

Lookup: // lookup protein stability index for PIPPLPSSRLGV
Found: 0.602

Lookup: // lookup protein stability index for KRVGLRLCGRLT
Found: 0.704

Lookup: // lookup protein stability index for SPPPHSARPPRP
Found: 0.686

The measurements presented in this section are drawn from the supplement of paper PMC10724198.
